Experiment: label from the status in PepcDB records;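 also: failed if final PepcDB status was selected cloned or expressed and not failed if soluble or beyond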
measured endpoint: protein production

- residues: "MRGMAANQGERIRRRLSTGERREQLLSVGARLFSESPYDEVWIEQVAEIAGVSRGLLYHYFPNKRDFFAAVVERESERMLRMTAAVPGVPVREQLTAGLDAYLEYVRAHAHGYRAFHRADAAGDRAVRRVYQKALAAQERQILAALAADPEFGPAFEERGDVRLAVRGWLAFTTAVCLEWLRDPEPAREQVRDLCARALLGAVAP"
  measured endpoint: "protein production"
  result: "not failed"
- residues: "MTKAIQSSVQVGELATGQALTVPIYSFMGSENSAPSVYIQANVHGAEVQGNAVIYQLMTLLEGYQVLGDITLAPLANPLGINQKSGEFTLGRFDPITGVNWNREYFDHNVDIQNWYAEHQHLTNSELFCAYRSMLVETCQARLTHSFGISTGHRLAVNLQAMAHQADIVLDLHTGPKSCKHLYCPEYDIDAARFFSIPYTLIIPNSFGGAMDEATFCPWWQLTEYATSQGREFSVPVSAFTLELASQERIDLADALEDAKGILAYLSHRGVIAEKVNPASMERFGCYLKDYKKFHAPKAGLIEYCASVGEPLTAGKPLVNILRIDLYGSEQAYQAISLPMDCVPILHFASASVLQGTELYKVMTNVFPLQPS"
  measured endpoint: "protein production"
  result: "not failed"

* * *

Assay: label from the status in PepcDB records
measured endpoint: protein production

- residues: "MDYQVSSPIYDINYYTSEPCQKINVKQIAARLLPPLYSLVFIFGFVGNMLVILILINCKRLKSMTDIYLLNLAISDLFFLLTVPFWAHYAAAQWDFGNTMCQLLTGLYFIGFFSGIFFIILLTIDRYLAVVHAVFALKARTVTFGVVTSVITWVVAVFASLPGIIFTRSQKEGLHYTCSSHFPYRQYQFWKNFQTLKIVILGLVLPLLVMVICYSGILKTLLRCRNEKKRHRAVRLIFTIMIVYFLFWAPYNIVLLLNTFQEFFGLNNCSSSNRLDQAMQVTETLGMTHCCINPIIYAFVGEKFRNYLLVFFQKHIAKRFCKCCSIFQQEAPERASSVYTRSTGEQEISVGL"
  result: "not failed"
- residues: "MDNKKLFVFIKYFTLVFMIVGIIFGGKEFNAQNITLMLILIINHQLRTFSLNKYIHKIISFILEIVLVVICNFWISGYLFTYLILLAIDANVMFKKFLASTFNVVIILIGVYFSFNYSLNYKIMNLGVSIIIIAVFYFNKYENEKKIEAQDLYDRLRISEEKLKKANRDLEMYASSVEELTLLRERNRISREIHDSVGHSLSTMVIQLGAIEKIIRKAPEKAELLTKNLRKFTQKSLDEVRAAVRAIKPKEFEEYEGILSIEELISNFKKMANIDVRLAFTKEKWSLNSDQSFVLYRIVQEFLSNSARHGRASRVDVIMAFSEKNLLVTLKDNGQGCQSIIEGVGMKSMRERVKELGGYFEYKTAPYEGFTVKIELAKREKLKVYSGGENNG"
  result: "failed"
- residues: "MIHITSQACFLWHTTINKICNRPMFNPLTIRFWGVRGSIPCPGSHTVRYGGNTPCVEIQANGQRIILDGGTGLRVLGEHLMGQQPVTAHLFFTHTHWDHIQGFPFFQPAFVPGNQFHIYAVPGKNGQGIERRLNDQMLHPNFPVPLQIMGGDLRFYDLEVGERVHLGDGVVVSNEALNHPGGGVGYRVSWQGIHVAYITDTEHLPDRLHPGAFALADHADVMIYDATYTDEEYYHPQQSKVGWGHSTWQEAVKLAQAAQVKQLILFHHDPSHDDDCLDRIGELARAQFPQTLLAREGLIISVYPNVIHFPATPQASLEHHHHHH"
  result: "failed"
- residues: "MLHLKVQFLDDSQKIFVVDQKSSGKALFNLSCSHLNLAEKEYFGLEFCSHSGNNVWLELLKPITKQVKNPKEIVFKFMVK"
  result: "failed"
- residues: "MRILIPFKANNPKSRLSSILSEEERKELARLMLLDVIDAAKPFGEIKVVCPSELDVEGVEVVVDTSDLNTTVNKVMDEAPLAVIMSDLPLLSEEVLKRFFETEGDVVVAPGRKGGTNMLLVRKRGFRVSYHFGSFFKHLEMARKMGMKAKIFDSFYSSVDIDDESDLLELMMHGSGKKSYEFLRKIGFSVSFEETPRLERRVFMQ"
  result: "failed"

Kindly review the next sequence as well.
Please give measured protein production of the following entry: MSLGTIIIVDDNKGVLTAVQLLLKNHFSKVITLSSPVSLSTVLREENPEVVLLDMNFTSGINNGNEGLFWLHEIKRQYRDLPVVLFTAYADIDLAVRGIKEGASDFVVKPWDNQKLLETLLNAASQAKDGKKEGHHHHHH
not failed
